Tested on: Morningglory, Ivyleaf, Ipomoea hederacea
procedure summary: Postemergence herbicidal evaluation, IPOHE
Format: in vivo, (L.) Jacq.
condition notes: 0.0630 kg/ha
readout name: herbicide rating (0-9)

herbicide rating (0-9) on Morningglory, Ivyleaf, Ipomoea hederacea for `COCc1nsc2ccc(-n3c(=O)cc(C(F)(F)F)n(C)c3=O)cc12` is 9.0

herbicide rating (0-9) on Morningglory, Ivyleaf, Ipomoea hederacea for `Cc1ccc(OCC(=O)n2cnc3ccccc32)c(-c2nsc3ccc(-n4c(=O)cc(C(F)(F)F)n(C)c4=O)cc23)c1` is 9.0

Please examine the following record next.
herbicide rating (0-9) on Morningglory, Ivyleaf, Ipomoea hederacea for `COC(=O)COc1ccc(C)cc1-c1nsc2ccc(-n3c(=O)cc(C(F)(F)F)n(C)c3=O)cc12` is 9.0

* * *

Tested on: ORYSAT Rice, Tebonnet
procedure summary: Rice tolerance, flooded paddy (Table IV)
Type: in vivo, Oryza sativa
Parameters: scale not given here
condition notes: 0.2500 kg/ha, crop tolerance
Excerpt: Plastic containers containing weeds which are 3 to 5 cm tall and rice seedlings at the 1.5 to 2.5 leaf stage are flooded with water. The water is maintained at 1.5 to 3 cm above the soil surface for the duration of the experiment. Test compounds are applied as aqueous/acetone mixtures 50/50 v/v directly into the flood water to provide the equivalent of about 0.0313 to 0.500 kg/ha of active ingredient. […] The compounds evaluated are reported by compound number given in Example 185.
readout name: herbicidal effect rating
Answers are plain numbers.

Worked cases, answers included:
# herbicidal effect rating (compound: `COc1cc(C)ccc1-c1nsc2ccc(-n3c(=O)cc(C(F)(F)F)n(C)c3=O)cc12` ) is 7.0

# herbicidal effect rating (compound: `Cc1ccc(OCC(=O)OCC2(c3ccccc3)CC2)c(-c2nsc3ccc(-n4c(=O)cc(C(F)(F)F)n(C)c4=O)cc23)c1` ) is 0.0

Hi, could you look up herbicidal effect rating for each item in my list?
1. Cn1c(C(F)(F)F)cc(=O)n(-c2ccc3snc(-c4ccccc4)c3c2)c1=O
2. Cc1nsc2ccc(-n3c(=O)cc(C(F)(F)F)n(C)c3=O)cc12
3. CCC(C#N)(CC)c1nsc2ccc(-n3c(=O)cc(C(F)(F)F)n(C)c3=O)cc12

*A*
1: 8.0; 2: 9.0; 3: 7.0

* * *

System: Wheat, Winter, cv Riband, Triticum aestivum
procedure summary: Postemergence herbicidal evaluation, TRZAWR
Assay type: in vivo
condition notes: 0.2500 kg/ha
readout name: herbicide rating (0-9)
Give bare numbers.

# herbicide rating (0-9) (molecule: `COC(=O)COc1ccc(C)cc1-c1nsc2ccc(-n3c(=O)cc(C(F)(F)F)n(C)c3=O)cc12` ) is 9.0

Hi, could you look up herbicide rating (0-9) for each item in my list?
1. Cc1nsc2ccc(-n3c(=O)cc(C(F)(F)F)n(C)c3=O)cc12
2. COC(=O)C(C)Oc1ccc(C)cc1-c1nsc2ccc(-n3c(=O)cc(C(F)(F)F)n(C)c3=O)cc12 (stereo not drawn)

*A*
1: 5.0; 2: 8.0

* * *

Assign herbicidal effect rating to each entry below.
System: AMBEL
procedure summary: Preemergence herbicidal evaluation
Format: in vivo
Set-up: scale not given here
condition notes: 0.1250 kg/ha
One number for each entry.

# herbicidal effect rating (compound: `CN(C)C(=O)c1nsc2ccc(-n3c(=O)cc(C(F)(F)F)n(C)c3=O)cc12` ) is 9.0

# herbicidal effect rating (compound: `Cc1nsc2ccc(-n3c(=O)cc(C(F)(F)F)n(C)c3=O)cc12` ) is 7.0

# herbicidal effect rating (compound: `Cc1nsc2ccc(N3C(=O)C4=C(CCCC4)C3=O)cc12` ) is 2.0

# herbicidal effect rating (compound: `O=C1C2=C(CCCC2)C(=O)N1c1ccc2sncc2c1` ) is 2.0

# herbicidal effect rating (compound: `Cn1c(C(F)(F)F)cc(=O)n(-c2ccc3snc(-c4ccccc4)c3c2)c1=O` ) is 9.0

Please examine the following record next.
# herbicidal effect rating (compound: `O=C1C2=C(CCCC2)C(=O)N1c1ccc2snc(-c3ccccc3)c2c1` ) is 3.5

* * *

Tested on: CYPSE Flatsedge
procedure summary: Preemergence weed control, flooded paddy (Table III)
Format: in vivo, Cyperus serotinus
Set-up: scale not given here
condition notes: 0.0313 kg/ha
Assign herbicidal effect rating to each entry below.
Give bare numbers.

Worked cases, answers included:
# herbicidal effect rating (compound: COC(=O)C(C)Oc1cc(C)c(C)cc1-c1nsc2ccc(-n3c(=O)cc(C(F)(F)F)n(C)c3=O)cc12 (stereo not shown) ) is 0.0

# herbicidal effect rating (compound: `COC(=O)COc1ccc(C)cc1-c1nsc2ccc(-n3c(=O)cc(C(F)(F)F)n(C)c3=O)cc12` ) is 0.0

# herbicidal effect rating (compound: COC(=O)C(C)Oc1ccc(C)cc1-c1nsc2ccc(-n3c(=O)cc(C(F)(F)F)n(C)c3=O)cc12 (stereo not shown) ) is 0.0

Next:
# herbicidal effect rating (compound: `COc1ccc(C)cc1-c1nsc2ccc(-n3c(=O)cc(C(F)(F)F)n(C)c3=O)cc12` ) is 1.3

* * *

Tested on: Galium, Galium aparine
procedure summary: Preemergence herbicidal evaluation, GALAP
Format: in vivo
condition notes: 0.2500 kg/ha
readout name: herbicide rating (0-9)
Answers are plain numbers.

Worked cases, answers included:
# herbicide rating (0-9) (compound: COc1c(C)cc(C)cc1-c1nsc2ccc(-n3c(=O)cc(C(F)(F)F)n(C)c3=O)cc12 [Compound 18] ) is 1.0

# herbicide rating (0-9) (compound: COC(=O)COc1ccc(C)cc1-c1nsc2ccc(-n3c(=O)cc(C(F)(F)F)n(C)c3=O)cc12 [Compound 2] ) is 9.0

# herbicide rating (0-9) (compound: COC(=O)C(C)Oc1ccc(C(C)C)cc1-c1nsc2ccc(-n3c(=O)cc(C(F)(F)F)n(C)c3=O)cc12 (centres unmarked) [Compound 30] ) is 7.0

Hi, could you look up herbicide rating (0-9) for each item in my list?
1. Cn1c(C(F)(F)F)cc(=O)n(-c2ccc3snc(-c4ccccc4)c3c2)c1=O [Compound 4]
2. COc1ccc(C)cc1-c1nsc2ccc(-n3c(=O)cc(C)n(C)c3=O)cc12 [Compound 24]

*A*
1: 9.0; 2: 3.0

Hi, could you look up herbicide rating (0-9) for each item in my list?
1. Cc1noc2cc(F)c(-n3c(=O)cc(C(F)(F)F)n(C)c3=O)cc12 [Compound 23]
2. COC(=O)COc1c(C)cc(C)cc1-c1nsc2ccc(-n3c(=O)cc(C(F)(F)F)n(C)c3=O)cc12 [Compound 26]
3. COC(=O)C(C)Oc1ccc(C)cc1-c1nsc2ccc(-n3c(=O)cc(C(F)(F)F)n(C)c3=O)cc12 (centres unmarked) [Compound 3]

*A*
9.0
4.0
7.6

* * *

Test system: ORYSAT Rice, Tebonnet
procedure summary: Rice tolerance, flooded paddy (Table IV)
Type: in vivo, Oryza sativa
Parameters: scale not given here
condition notes: 0.1250 kg/ha, crop tolerance
readout name: herbicidal effect rating
Give bare numbers.

Worked cases, answers included:
herbicidal effect rating on ORYSAT Rice, Tebonnet for `CC(C)Oc1cccc(-c2nsc3ccc(-n4c(=O)cc(C(F)(F)F)n(C)c4=O)cc23)c1` is 4.0

herbicidal effect rating on ORYSAT Rice, Tebonnet for COC(=O)C(C)Oc1ccc(C)cc1-c1nsc2ccc(-n3c(=O)cc(C(F)(F)F)n(C)c3=O)cc12 (stereo not shown) is 3.0

Hi, could you look up herbicidal effect rating for each item in my list?
1. CC(C)S(=O)(=O)NC(=O)c1nsc2ccc(-n3c(=O)cc(C(F)(F)F)n(C)c3=O)cc12
2. CON(C)C(=O)COc1ccccc1-c1nsc2ccc(-n3c(=O)cc(C(F)(F)F)n(C)c3=O)cc12
3. COC(=O)COc1ccc(C)cc1-c1noc2cc(F)c(-n3c(=O)cc(C(F)(F)F)n(C)c3=O)cc12
4. COC(=O)COc1cc(C)c(C)cc1-c1nsc2ccc(-n3c(=O)cc(C(F)(F)F)n(C)c3=O)cc12
5. COc1cc(C)c(I)cc1-c1nsc2ccc(-n3c(=O)cc(C(F)(F)F)n(C)c3=O)cc12

*A*
[3.0, 6.0, 4.0, 7.0, 2.0]

* * *

Tested on: SAGPY Arrowhead (Pygmaea)
procedure summary: Preemergence weed control, flooded paddy (Table III)
Assay type: in vivo, Sagittaria pygmaea
Parameters: scale not given here
condition notes: 0.1250 kg/ha
I'd appreciate it if you marked entries Satisfied when herbicidal effect rating is lower than 6 and Not satisfied when it is not.

Reference set, count: 8
*Q* hey, is herbicidal effect rating for `COC(=O)COc1cc(C)c(C)cc1-c1nsc2ccc(-n3c(=O)cc(C(F)(F)F)n(C)c3=O)cc12` lower than 6 or not?
*A* Satisfied

*Q* hey, is herbicidal effect rating for `Cc1cc(O)c(-c2nsc3ccc(-n4c(=O)cc(C(F)(F)F)n(C)c4=O)cc23)cc1C` lower than 6 or not?
*A* Satisfied

*Q* hey, is herbicidal effect rating for `COC(=O)COc1cc(C)ccc1-c1nsc2ccc(-n3c(=O)cc(C(F)(F)F)n(C)c3=O)cc12` lower than 6 or not?
*A* Not satisfied

*Q* hey, is herbicidal effect rating for `CCc1ccc(-c2nsc3ccc(-n4c(=O)cc(C(F)(F)F)n(C)c4=O)cc23)cc1` lower than 6 or not?
*A* Satisfied

*Q* hey, is herbicidal effect rating for `Cc1nsc2ccc(-n3c(=O)cc(C(F)(F)F)n(C)c3=O)cc12` lower than 6 or not?
*A* Not satisfied

*Q* hey, is herbicidal effect rating for `COC(=O)COc1ccc(C)cc1-c1nsc2ccc(-n3c(=O)cc(C(F)(F)F)n(C)c3=O)cc12` lower than 6 or not?
*A* Satisfied

*Q* hey, is herbicidal effect rating for `COc1cc(C)ccc1-c1nsc2ccc(-n3c(=O)cc(C(F)(F)F)n(C)c3=O)cc12` lower than 6 or not?
*A* Not satisfied

*Q* hey, is herbicidal effect rating for `COc1ccc(C)cc1-c1nsc2ccc(-n3c(=O)cc(C(F)(F)F)n(C)c3=O)cc12` lower than 6 or not?
*A* Not satisfied

Switching to the query record.
*Q* hey, is herbicidal effect rating for COC(=O)C(C)Oc1cc(C)ccc1-c1nsc2ccc(-n3c(=O)cc(C(F)(F)F)n(C)c3=O)cc12 (stereo not drawn) lower than 6 or not?
*A* Not satisfied
